Biological target: MSI1 full-length (mouse, UniProt Q61474 1-362)
Sequence (Q61474 whole entry): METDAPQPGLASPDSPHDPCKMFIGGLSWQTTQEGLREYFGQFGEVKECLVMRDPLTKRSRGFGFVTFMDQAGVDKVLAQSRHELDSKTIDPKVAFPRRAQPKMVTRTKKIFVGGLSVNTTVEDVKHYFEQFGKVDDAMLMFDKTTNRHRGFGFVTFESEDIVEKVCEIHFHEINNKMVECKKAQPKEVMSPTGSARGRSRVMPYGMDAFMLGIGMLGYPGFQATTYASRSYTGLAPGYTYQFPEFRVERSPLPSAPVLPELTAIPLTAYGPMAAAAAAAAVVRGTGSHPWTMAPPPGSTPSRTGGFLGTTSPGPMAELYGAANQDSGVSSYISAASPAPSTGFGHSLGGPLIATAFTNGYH
Assay: nsRBNS (natural sequence RNA bind-n-seq); RBNS binding buffer (assumed for nsRBNS): 25 mM Tris pH 7.5, 150 mM KCl, 3 mM MgCl2, 0.01% Triton X-100, 500 ug/ml BSA, 20 U/ml SUPERase-In, 4 C; UNK is unkempt and MSI1 is Musashi-1; names of the RNAs are library labels; protein concentration not given here; high values mean tight binding
Whole data set: some 5,800 sequences, median “enrichment r” near 0.54, cut for the highest 2% near 16. Shown is part of a subset that was picked to be rich in the highest values.
// rule not met strictly below 0.4 enrichment R in binding signal; rule met otherwise

# BINDER, GROUP
measured = [
    ("ENSG00000136451:be:win_1001|CDS|ENSG00000136451|bound_else_gene|NA|bound_elsewhere_windowed (ssRNA) RNA: GGGAGUUCUACAGUCCGACGAUCACCAAAAGCAGCAGCAGCAGCAGCAGCAGCAGCAGCAGCAGCAGCAACAACAACAACAACAACAUGUGACAAGCUGGCCAGGGAAGCAAGUAGAAACACUGAGACUGUGGGAAGAAGCUGCAACAGAGGAUUGAGCAUCA", "rule met"),
    ("ENSG00000136451:be:win_3751|3pUTR|ENSG00000136451|bound_else_gene|NA|bound_elsewhere_windowed (ssRNA) RNA: GGGAGUUCUACAGUCCGACGAUCCUCCACAGUGGUCCAAGGAGCAGUCCUCAGUGGGGGCAGGUGUGGGCCCUACCCCUAAGCUAGAAUGUGGUUGUCAGAACCCUGAAAGUAUUAGUUCUAAAAAAAAAAAGAUAUAUACUACAACAGAGGAUUGAGCAUCA", "rule met"),
    ("chr1:67413009:67413110:-|3pUTR|ENSG00000142864|unk|total|mutant (ssRNA) RNA: GGGAGUUCUACAGUCCGACGAUCCUGAAUUUUAUCUGUUUUAAAAAUGAACUUCUCCCGCUACACAGAAGUAACAAAUAUGGCCGUCAGUUUUGUAUUCCGAAAUGUAUUGGCCGCAGGGAUGUUUUCAUAAUUUUCAGAGAUCAACAGAGGAUUGAGCAUCA", "rule met"),
]

### Prompt Confirm if binding signal reported for the binder ENSG00000136451:be:win_551|CDS|ENSG00000136451|bound_else_gene|NA|bound_elsewhere_windowed (ssRNA) RNA: GGGAGUUCUACAGUCCGACGAUCGAGAUGUGUACCAUCUCAAUCGACACAAGCUCUCCCAUUCAGAUGAGAAACCCUUUGAGUGUCCUAUUUGUAAUCAGCGCUUCAAGAGGAAGGACCGGAUGACUUACCAUGUGAGGUCUCCAACAGAGGAUUGAGCAUCA is 0.4 enrichment R or above.
### Response rule not met

### Prompt Exam item: decide whether the reported binding signal for chr1:67413009:67413110:-|3pUTR|ENSG00000142864|unk|FALSE|unique (ssRNA) RNA: GGGAGUUCUACAGUCCGACGAUCCUGAAUUUUAUCUGUUUUAAAAAUGAACUUCUCCCGCUACACAGAAGUAACAAAUAUGGUAGUCAGUUUUGUAUUUAGAAAUGUAUUGGUAGCAGGGAUGUUUUCAUAAUUUUCAGAGAUCAACAGAGGAUUGAGCAUCA is at least 0.4 enrichment R.
### Response rule met

### Prompt Is reported binding signal greater than or equal to 0.4 enrichment R here: chr17:57972098:57972209:-|3pUTR|ENSG00000136451|unk|total|mutant (ssRNA) RNA: GGGAGUUCUACAGUCCGACGAUCCCCGAAUGUGGUUGUCAGAACCCUGAAAGUAUCCGUUCUAAAAAAAAAAAGAUAUAUACCCGAAGUAAUUGUUUUAUCAAUUCAUUGUAUAAUAAACAGGAGUGAGACUUCAUUGUAUGACAACAGAGGAUUGAGCAUCA
### Response rule met
